# Tested on: TO-N3 (biotin conjugate)
# assayOverview: pull-down binding Z-score (relative to library population); higher = stronger binding
# conditionContext: RNA library: Library-2
Hi, to clarify the labels: class 1 covers pull-down binding Z-score from -0.5 upward, class 0 covers anything below -0.5.

These recorded examples may help you get a feel for the data.
sequencestring="ACUUUUUUUUUUUUUUUUUUUAAUGUUAAAAGU [hsa-mir-5588]" class="class 0"
sequencestring="ACCAUAUCUAAGCUAAUGUGGUGGU [hsa-mir-876]" class="class 1"
sequencestring="CUGGAGUCGCCUGAGUCAUCACUCAG [hsa-mir-3065]" class="class 1"
sequencestring="UUGGUGUGUAUUGCCUUGUCAA [hsa-mir-1179]" class="class 0"
sequencestring="GCGCAGCCAGAAACUGGCAGCGC [mismatch-AA]" class="class 0"

Check this sequence for pull-down binding Z-score at or above -0.5: GGUGGCAAUCAAGGUCUAGCCACC [hsa-mir-4733]
class 1

Query AGGGCCUUCUGAGCCCAGGUCCG [hsa-mir-6716] next
class 1

Query GUGCGUAUAAAGAUUGUACAAAUGUUAAGUGACACACUUAAAAAUCUCUCUGACAGAGUCGUAUUUGUCUUAUGGGCAC [DMSMaPseq_invitro_SARS-CoV-2_Multi_54_ComplexLevel_1] next
class 0

For ACUAGAUUUGAAUCCAGACCUUUAGU [hsa-mir-5584] then?
class 1

Another sequence: GGGCAGGGAGGGCAGGGCAGGCUCUGGGGUGGGGGGUCUGUGAGUCAGCCACGGCUC [hsa-mir-4516]
class 1

Another sequence: AAAGAGGUGUUUCUACUCCAU [hsa-mir-3690-1_3690-2]
class 0

Same again, this time with GUGGUUUCAGGGCAGUGAUGUUGCCCCUCGGAAGAUAACUAU [hsa-let-7b]
class 1

Another sequence to look at: "CCUUACCCAGAUCCAUCAAGAAUCCUAGGGGCCGG"
class 1
